# Test system: Aβ1-42
# protocolDetails: Aβ1-42 content in conditioned medium of primary cortico-hippocampal neuron cultures from Tg2576 mice (ELISA; primary and secondary dose-response screening)
# Assay type: cell-based, mouse
# conditionSummary: Mus musculus, Neuron, 24 h, primary screening, drug 100 μM, Tg2576 neuron cultures; table sorted by Aβ1-42; read-out: Ab1-42 (% of ctl)
quantityKind: activity at 100 µM (%)

1. COc1ccc2cc1Oc1ccc(cc1)C[C@H]1c3cc(c(OC)cc3CCN1C)Oc1c(OC)c(OC)cc3c1[C@H](C2)N(C)CC3
25.2
2. CCCC(=O)Nc1ncnc2c1ncn2[C@@H]1O[C@@H]2COP(=O)(O)O[C@H]2[C@H]1OC(=O)CCC
69.9
3. CCOC(=O)[N-]c1cn(N2CCOCC2)n[o+]1
121
4. CC(C)(C)NCC(O)COc1cccc2[nH]c(=O)[nH]c12 (centres unmarked)
104
5. CC(C)(C)NCC(O)COc1cccc2c1CC(O)C(O)C2 (centres unmarked)
113
